# TARGET DESC: wildtype Taspase1 (split Tasp1 WT) (Homo sapiens, UniProt Q9H6P5)
# Sequence (Q9H6P5 1-233): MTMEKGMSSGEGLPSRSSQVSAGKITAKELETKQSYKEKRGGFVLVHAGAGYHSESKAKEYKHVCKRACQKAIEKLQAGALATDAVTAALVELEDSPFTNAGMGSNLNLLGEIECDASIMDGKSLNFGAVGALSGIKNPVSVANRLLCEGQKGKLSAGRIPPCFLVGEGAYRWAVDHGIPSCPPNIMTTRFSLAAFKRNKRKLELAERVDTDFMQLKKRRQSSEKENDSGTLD
# Sequence (Q9H6P5 234-420): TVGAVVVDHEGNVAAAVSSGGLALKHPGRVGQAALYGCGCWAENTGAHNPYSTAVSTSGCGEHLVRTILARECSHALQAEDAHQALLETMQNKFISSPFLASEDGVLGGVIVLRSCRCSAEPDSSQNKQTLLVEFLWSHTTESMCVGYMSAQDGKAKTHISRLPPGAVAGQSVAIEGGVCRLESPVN
# ASSAY PROTOCOL: biochemical
# CONDITIONS USED: Biochemical IC50 (nM) no GSH, Table 1; no GSH; 3FAM/QXL520 fluorescent dyes
Flag rule - IC50 less than 30 nM flags t; the remaining entries get f.

Problem: # TODO verify IC50 < 30 nM strictly for this compound: C=CS(=O)(=O)N1CCN(Cc2ccc(OC(F)(F)F)c(F)c2)[C@@H](CCO)C1
Result: t

Problem: # TODO verify IC50 < 30 nM strictly for this compound: C=CS(=O)(=O)N1CCN(Cc2ccc(OC(F)(F)F)c(F)c2)CC1
Result: f

Problem: # TODO verify IC50 < 30 nM strictly for this compound: C=CS(=O)(=O)N1CCN(Cc2ccc(OC(F)(F)F)c(F)c2)[C@@H](COCc2cn[nH]c2)C1
Result: t

Problem: # TODO verify IC50 < 30 nM strictly for this compound: C#CCOC[C@H]1CN(S(=O)(=O)C=C)CCN1Cc1ccc(OC(F)(F)F)c(F)c1
Result: t

Problem: # TODO verify IC50 < 30 nM strictly for this compound: C=CS(=O)(=O)N1CCN(Cc2ccc(OC(F)(F)F)cc2)CC1
Result: f

Problem: # TODO verify IC50 < 30 nM strictly for this compound: C=CS(=O)(=O)N1CCN(Cc2ccc(OC(F)(F)F)c(F)c2)[C@@H](CN2CCS(=O)(=O)CC2)C1
Result: t

====

# TARGET DESC: Taspase1 (Homo sapiens, UniProt Q9H6P5)
# Sequence (Q9H6P5 1-233): as the sequence (Q9H6P5 1-233) above
# Sequence (Q9H6P5 234-420): as the sequence (Q9H6P5 234-420) above
# ASSAY PROTOCOL: biochemical
# CONDITIONS USED: Ki (uM), Table 1
Flag rule - Ki less than 30 µM flags satisfied; the remaining entries get not satisfied.

Problem: # TODO verify Ki < 30 µM strictly for this compound: C=CS(=O)(=O)N1CCN(Cc2ccc(OC(F)(F)F)c(F)c2)[C@@H](CCO)C1 [SMDC069]
Result: satisfied

Problem: # TODO verify Ki < 30 µM strictly for this compound: C#CCOC[C@H]1CN(S(=O)(=O)C=C)CCN1Cc1ccc(OC(F)(F)F)c(F)c1 [SMDC883]
Result: not satisfied

Problem: # TODO verify Ki < 30 µM strictly for this compound: C=CS(=O)(=O)N1CCN(Cc2ccc(OC(F)(F)F)c(F)c2)CC1 [SMDC689]
Result: not satisfied

Problem: # TODO verify Ki < 30 µM strictly for this compound: C=CS(=O)(=O)N1CCN(Cc2ccc(OC(F)(F)F)cc2)CC1 [SMDC967]
Result: satisfied

Problem: # TODO verify Ki < 30 µM strictly for this compound: C=CS(=O)(=O)N1CCN(Cc2ccc(OC(F)(F)F)c(F)c2)[C@@H](COCc2cn[nH]c2)C1 [SMDC203]
Result: satisfied

====

# TARGET DESC: wildtype Taspase1 (split Tasp1 WT) (Homo sapiens, UniProt Q9H6P5)
# ASSAY PROTOCOL: biochemical
# CONDITIONS USED: WT IC50 (nM) No GSH, Table 1a; no GSH; average ± std dev
Flag rule - IC50 less than 40 nM flags t; the remaining entries get f.

Problem: # TODO verify IC50 < 40 nM strictly for this molecule: C=CS(=O)(=O)N1CCN(Cc2ccc(OC(F)(F)F)c(F)c2)[C@@H](COCc2cn[nH]c2)C1
Result: t

Problem: # TODO verify IC50 < 40 nM strictly for this molecule: C=CS(=O)(=O)N1CCN(Cc2ccc(OC(F)(F)F)c(F)c2)[C@@H](CCO)C1
Result: t

Problem: # TODO verify IC50 < 40 nM strictly for this molecule: C=CS(=O)(=O)N1CCN(Cc2ccc(OC(F)(F)F)c(F)c2)CC1
Result: f

Problem: # TODO verify IC50 < 40 nM strictly for this molecule: C=CS(=O)(=O)N1CCN(Cc2ccc(OC(F)(F)F)c(F)c2)[C@@H](CN2CCS(=O)(=O)CC2)C1
Result: t

Problem: # TODO verify IC50 < 40 nM strictly for this molecule: C=CS(=O)(=O)N1CCN(Cc2ccc(OC(F)(F)F)cc2)CC1
Result: f

Problem: # TODO verify IC50 < 40 nM strictly for this molecule: C#CCOC[C@H]1CN(S(=O)(=O)C=C)CCN1Cc1ccc(OC(F)(F)F)c(F)c1
Result: t

From: patent US20230052528A1
